Test system: UACC-257 melanoma
Assay: NCI-60 one-dose screen, 48 h (100 = growth as untreated, 0 = no growth, -100 = all killed)
Settings: 10 µM unless noted
The panel holds about 83,000 compounds, 20% with a hit somewhere; the sample as a whole holds those more often.
Readout label: growth (%)
The reply should be a number in %, with the unit left off.

// below: answered molecules
>>> test_result("COc1ccc(-n2cc(-c3cc(OC)c(OC)c(OC)c3)n(C(C)=O)c2=O)cc1")
90.3
>>> test_result("CC(=O)N1N=C(c2cccc(Nc3ccncc3)c2)CC1c1ccccc1 (stereo not drawn)")
92.6
>>> test_result("O=C1OC(=O)C2C1CC=CC2c1ccccc1 (stereo not drawn)")
107
>>> test_result("O=S(=O)(NCCCNc1nccc(-c2c(-c3cccc(O)c3)nc3occn23)n1)c1ccc(F)cc1")
19.7
>>> test_result("CC(=O)[C@@H]1CC[C@]2(C(=O)n3ccnc3)CC[C@]3(C)[C@H](CC[C@@H]4[C@@]5(C)Cc6c([nH]c7ccccc67)C(C)(C)[C@@H]5CC[C@]43C)[C@@H]12")
97.1
>>> test_result("CCCCCCc1nc2nc(Cl)c(Cl)nc2[nH]1")
54.9

Name the recorded growth for `COc1cccc(NC(=O)c2cccc(-c3cc(=O)c4c(OC)c(OC)c(OC)cc4o3)c2)c1` .
92.4

Name the recorded growth for `COc1cc2c(cc1[N+](=O)[O-])-c1ccc([N+](=O)[O-])cc1/C2=N/NC(N)=S` .
75.5
